# Assay summary: Apparent permeability of the compound across bacterial inner membrane mimic pure POPG in PBS buffer at pH 7.4 incubated for 5 hrs in presence of 1,3,3-tris(8-carbamimidamidooctyl)-1-{8-[N'-(cyclopropylmethyl)carbamimidamido]octyl}urea trifluoroacetate salt by PAMPA based UV-Vis spectrophotometric analysis
Recorded endpoint: Papp at 5 h
Remember to follow the number with its unit.

Output measured Papp at 5 h for this item: O=C(N[C@H](CO)[C@H](O)c1ccc([N+](=O)[O-])cc1)C(Cl)Cl
3.78 ×10⁻⁶ cm/s

###

# System: Pseudomonas aeruginosa
# Assay summary: Antibacterial activity against Pseudomonas aeruginosa ATCC 27853 assessed as bacterial growth inhibition incubated for 18 hrs by micro-dilution broth method
# Format: functional
Recorded endpoint: MIC (µg/mL)
Give the quantity in µg/mL, number only.

Smiles input: N=C(NCCCCCCCCNC(=O)N(CCCCCCCCNC(=N)NCC1CC1)CCCCCCCCNC(=N)NCC1CC1)NCC1CC1.O=C(O)C(F)(F)F
MIC (µg/mL): 64

Smiles input: CCCCCCCCN(CCCCCCCCNC(=N)NCC1CC1)C(=O)N(CCCCCCNC(=N)NCC1CC1)CCCCCCNC(=N)NCC1CC1
MIC (µg/mL): 16

Smiles input: CCCCCCN(CCCCCCCCNC(=N)NCC1CC1)C(=O)N(CCCCCCCCNC(=N)NCC1CC1)CCCCCCCCNC(=N)NCC1CC1
MIC (µg/mL): 16

Smiles input: NCCCCCCCCN(CCCCCCCCN)C(=O)N(CCCCCCCCN)CCCCCCCCN
MIC (µg/mL): 32

Smiles input: N=C(N)NCCCCCCCCN(CCCCCCCCNC(=N)NCC1CC1)C(=O)N(CCCCCCCCNC(=N)NCC1CC1)CCCCCCCCNC(=N)NCC1CC1.O=C(O)C(F)(F)F
MIC (µg/mL): 8

Output measured MIC for this item: N=C(N)NCCCCCCCCN(CCCCCCCCN)C(=O)N(CCCCCCCCN)CCCCCCCCNC(=N)N.O=C(O)C(F)(F)F
32

###

# Assay summary: Hemolytic activity against human RBC at 64 ug/ml incubated for 30 mins (reference value: 0%)
# Type: toxicity, cell-based, Erythrocyte
# Measurement conditions: human red blood cells (erythrocytes), at 64 µg/mL, read-out: Activity
Assign class by hemolysis at 0.5 h, 64 ug/ml: not lower than 8% means yes; lower than 8% means no.

Below are worked cases with known answers.
Smiles input: N=C(NCCCCCCCCNC(N)=O)NCC1CC1.O=C(O)C(F)(F)F
Category label: no
//
Smiles input: N=C(N)NCCCCCCCCN(CCCCCCCCNC(=N)NCC1CC1)C(=O)N(CCCCCCCCNC(=N)N)CCCCCCCCNC(=N)NCC1CC1
Category label: no
//
Smiles input: CCCCCCCCN(CCCCCCCCNC(=N)NCC1CC1)C(=O)N(CCCCCCNC(=N)NCC1CC1)CCCCCCNC(=N)NCC1CC1
Category label: yes

hey, is hemolysis at 0.5 h, 64 ug/ml for this one >= 8%? N=C(N)NCCCCCCCCN(CCCCCCCCN)C(=O)N(CCCCCCCCN)CCCCCCCCNC(=N)N.O=C(O)C(F)(F)F
no

###

# Assay summary: Hemolytic activity against human RBC at 32 ug/ml incubated for 30 mins (reference value: 0%)
# Type: toxicity, cell-based, Erythrocyte
# Measurement conditions: human red blood cells (erythrocytes), at 32 µg/mL, read-out: Activity
// hemolysis at 0.5 h, 32 ug/ml lookup, one value per entry
Give the quantity in %, number only.

Would you please look over these solved cases?
Smiles input: N=C(N)NCCCCCCCCN(CCCCCCCCNC(=N)NCC1CC1)C(=O)N(CCCCCCCCNC(=N)NCC1CC1)CCCCCCCCNC(=N)NCC1CC1.O=C(O)C(F)(F)F
Unit string: %
hemolysis at 0.5 h, 32 ug/ml: 3.3
--
Smiles input: CCCCCCCCN(CCCCCCCCNC(=N)NCC1CC1)C(=O)N(CCCCCCNC(=N)NCC1CC1)CCCCCCNC(=N)NCC1CC1
Unit string: %
hemolysis at 0.5 h, 32 ug/ml: 8.4
--
Smiles input: N=C(N)NCCCCCCCCN(CCCCCCCCN)C(=O)N(CCCCCCCCN)CCCCCCCCNC(=N)N.O=C(O)C(F)(F)F
Unit string: %
hemolysis at 0.5 h, 32 ug/ml: 1.6
--
Smiles input: N=C(NCCCCCCCCNC(N)=O)NCC1CC1.O=C(O)C(F)(F)F
Unit string: %
hemolysis at 0.5 h, 32 ug/ml: 0

Next up:
Output measured hemolysis at 0.5 h, 32 ug/ml for this item: N=C(N)NCCCCCCCCN(CCCCCCCCNC(=N)NCC1CC1)C(=O)N(CCCCCCCCNC(=N)N)CCCCCCCCNC(=N)NCC1CC1
2
